Cited source: PubChem BioAssay (NCI)

# Test system: OVCAR-3 ovarian
# protocol: NCI-60 one-dose screen, 48 h
# cond: 10 µM unless noted
The panel holds about 83,000 compounds, 20% with a hit somewhere; the sample as a whole holds those more often. Activity calls are given as the source filed them. Rule for the calls: active = growth percent below 10; inactive = the rest.
Give your call using only these classes: y for active, n for inactive

Study these solved cases before continuing.
# compound, category_label
measured = [
    ("COC(=O)c1ccc(C(=Nc2ccc(N(C)C(=O)CN3CCN(C)CC3)cc2)c2c(O)[nH]c3ccc(C(=O)OC)cc23)cc1", "n"),
    ("O=C(N/N=C\\c1ccc(-c2ccc(Br)cc2)o1)c1cc2oc(-c3cccc(C(F)(F)F)c3)cc2[nH]1", "n"),
]

Please state the recorded outcome for this compound: N#Cc1c2cccnc2c2nnc3cc(Cl)c(Cl)cc3n12
y

Check the results log: what was the call for CC(=O)Nc1ccc(S(=O)(=O)Cl)cc1 ?
n

Dear all, I need the recorded test outcome for O=C(Nc1ccc(Cl)c(Cl)c1)O/N=C\c1c(Cl)ccc([N+](=O)[O-])c1Cl , thank you.
y

Dear all, I need the recorded test outcome for COc1ccc(Cn2cc3c(c2-c2ccc(O)cc2)CCc2cnoc2-3)cc1 , thank you.
y

Record request — test call for CC[C@H](Nc1ncnc2nc[nH]c12)c1nc2cccc(NCc3ccc(C(=O)NO)o3)c2c(=O)n1-c1ccccc1
n

How was C#CCCCCCCC[C@@H]1OC(=O)[C@H]([C@@H](C)CC)NC(=O)[C@H]([C@@H](C)CC)NC(=O)CC(=O)[C@@H]1C classified in this test?
n
